Target: USP46 (UniProt P62068)
Sequence (P62068 whole entry, the tested form may be a part): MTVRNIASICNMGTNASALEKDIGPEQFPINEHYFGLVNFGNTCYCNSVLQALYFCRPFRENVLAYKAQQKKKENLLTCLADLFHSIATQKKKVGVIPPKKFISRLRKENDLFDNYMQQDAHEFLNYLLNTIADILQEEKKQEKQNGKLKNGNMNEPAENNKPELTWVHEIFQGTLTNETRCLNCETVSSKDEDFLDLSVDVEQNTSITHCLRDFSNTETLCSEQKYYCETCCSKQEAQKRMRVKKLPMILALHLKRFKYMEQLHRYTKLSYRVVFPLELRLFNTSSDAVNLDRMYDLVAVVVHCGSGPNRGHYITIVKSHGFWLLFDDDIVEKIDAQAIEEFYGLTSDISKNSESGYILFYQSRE
Assay: log2 ratio of Biotin-Ahx-Ub-VS probe labelling (fragment/DMSO); higher = less target engagement (more negative = stronger competition), active = hit call of the paper (q ≤ 0.05, log2 ratio ≤ -1)
Settings: compound concentration: 200 uM; treatment time: 3 h
Reported log2 ratio of Biotin-Ahx-Ub-VS probe labelling values are given for each entry in this list.
Number, no unit, nothing else.

O=C(CCl)NCc1cccc(F)c1    0.151
Cc1n[nH]c(=O)c2c(NC(=O)CCl)oc(C)c12    -0.0434
N#Cc1cnn(-c2ccccc2)c1NC(=O)CCl    -0.0464
Cc1cccc(NC(=O)[C@@H]2CCCN2C(=O)CCl)n1    -0.247
O=C(CCl)N1CCc2ccccc2C(O)C1 (centres undefined)    -0.184
CN1C(=O)c2ccc(NC(=O)CCl)cc2C1=O    -0.152
O=C(CCl)N1CCOC2(CCC2)C1    0.171
O=C(CCl)N[C@H]1CCS(=O)(=O)c2ccccc21    0.0271

Using the record for O=C(CCl)N(Cc1ccsc1)C1CC1 , report its log2 ratio of Biotin-Ahx-Ub-VS probe labelling. 0.201

Using the record for COc1ccc(Cl)cc1NC(=O)CCl , report its log2 ratio of Biotin-Ahx-Ub-VS probe labelling. -0.265

Using the record for O=C(CCl)NC1CCN(C(=O)C2CCCCC2)CC1 , report its log2 ratio of Biotin-Ahx-Ub-VS probe labelling. 0.262

Using the record for O=C(CN1CCN(C(=O)CCl)CC1)Nc1cccc(F)c1 , report its log2 ratio of Biotin-Ahx-Ub-VS probe labelling. -0.173

Using the record for O=C(CCl)Nc1cccc(NC(=O)c2ccccc2)c1 , report its log2 ratio of Biotin-Ahx-Ub-VS probe labelling. 0.291

Using the record for Cc1cccc(C)c1NC(=O)CCl , report its log2 ratio of Biotin-Ahx-Ub-VS probe labelling. -0.0272

----------
Reported log2 ratio of Biotin-Ahx-Ub-VS probe labelling values are given for each entry in this list.
Molecular target: COPS5 (UniProt Q92905)
Sequence (Q92905 whole entry, looked up, the tested form may be a part): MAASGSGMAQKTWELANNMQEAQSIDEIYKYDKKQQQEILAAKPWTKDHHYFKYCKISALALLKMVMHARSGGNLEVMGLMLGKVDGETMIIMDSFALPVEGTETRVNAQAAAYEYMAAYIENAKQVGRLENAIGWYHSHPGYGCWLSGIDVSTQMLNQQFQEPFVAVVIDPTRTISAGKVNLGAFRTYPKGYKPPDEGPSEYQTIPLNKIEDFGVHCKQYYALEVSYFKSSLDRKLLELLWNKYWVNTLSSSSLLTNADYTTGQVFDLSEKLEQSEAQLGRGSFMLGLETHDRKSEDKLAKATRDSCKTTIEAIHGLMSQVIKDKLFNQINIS
Test: log2 ratio of Biotin-Ahx-Ub-VS probe labelling (fragment/DMSO); higher = less target engagement (more negative = stronger competition), active = hit call of the paper (q ≤ 0.05, log2 ratio ≤ -1)
Details: compound concentration: 200 uM; treatment time: 3 h

Record excerpt, results attached:
CC(C)n1nccc1NC(=O)CCl    0.0761 (inactive)
Cc1ccc(C(=O)NCCNC(=O)CCl)cc1    -0.05 (inactive)
O=C(CN1CCN(C(=O)CCl)CC1)Nc1cccc(F)c1    0.273 (inactive)
O=C(CCl)N1CCC(C(=O)N2CCCC2)CC1    -0.223 (inactive)
Cl.Cn1nc2c(c1CNC(=O)CCl)CCCC2    -0.111 (inactive)
O=C(CCl)NCc1noc(C2CC2)n1    0.133 (inactive)
CNC(=O)C1CCN(C(=O)CCl)CC1    0.16 (inactive)
Cc1cccc(NC(=O)CCl)c1C    -0.347 (inactive)
O=C(CCl)Nc1ccccc1C(F)(F)F    0.00522 (inactive)
Cc1nc(CN2CCN(C(=O)CCl)CC2)cs1    -0.305 (inactive)

Using the record for Cl.O=C(CCl)NCCN1CCc2ccccc21 , report its log2 ratio of Biotin-Ahx-Ub-VS probe labelling. 0.365 (inactive)

Using the record for O=C(CCl)NCc1cccc(N2CCCC2=O)c1 , report its log2 ratio of Biotin-Ahx-Ub-VS probe labelling. -0.0124 (inactive)

Using the record for CC(NC(=O)CCl)c1cnn(C2CC2)c1 (configuration not stated) , report its log2 ratio of Biotin-Ahx-Ub-VS probe labelling. -0.244 (inactive)

Using the record for O=C(CCl)NC1CCCCNC1=O (configuration not stated) , report its log2 ratio of Biotin-Ahx-Ub-VS probe labelling. 0.0739 (inactive)

Using the record for O=C(CCl)N1CCCCC12CCOCC2 , report its log2 ratio of Biotin-Ahx-Ub-VS probe labelling. 0.0647 (inactive)

Using the record for CC1CCc2onc(CNC(=O)CCl)c2C1 (configuration not stated) , report its log2 ratio of Biotin-Ahx-Ub-VS probe labelling. 0.0922 (inactive)
